Target Under Test: ALK (Homo sapiens, UniProt Q9UM73)
Construct: host or cells: baculovirus expression system
Sequence (Q9UM73 19-1620): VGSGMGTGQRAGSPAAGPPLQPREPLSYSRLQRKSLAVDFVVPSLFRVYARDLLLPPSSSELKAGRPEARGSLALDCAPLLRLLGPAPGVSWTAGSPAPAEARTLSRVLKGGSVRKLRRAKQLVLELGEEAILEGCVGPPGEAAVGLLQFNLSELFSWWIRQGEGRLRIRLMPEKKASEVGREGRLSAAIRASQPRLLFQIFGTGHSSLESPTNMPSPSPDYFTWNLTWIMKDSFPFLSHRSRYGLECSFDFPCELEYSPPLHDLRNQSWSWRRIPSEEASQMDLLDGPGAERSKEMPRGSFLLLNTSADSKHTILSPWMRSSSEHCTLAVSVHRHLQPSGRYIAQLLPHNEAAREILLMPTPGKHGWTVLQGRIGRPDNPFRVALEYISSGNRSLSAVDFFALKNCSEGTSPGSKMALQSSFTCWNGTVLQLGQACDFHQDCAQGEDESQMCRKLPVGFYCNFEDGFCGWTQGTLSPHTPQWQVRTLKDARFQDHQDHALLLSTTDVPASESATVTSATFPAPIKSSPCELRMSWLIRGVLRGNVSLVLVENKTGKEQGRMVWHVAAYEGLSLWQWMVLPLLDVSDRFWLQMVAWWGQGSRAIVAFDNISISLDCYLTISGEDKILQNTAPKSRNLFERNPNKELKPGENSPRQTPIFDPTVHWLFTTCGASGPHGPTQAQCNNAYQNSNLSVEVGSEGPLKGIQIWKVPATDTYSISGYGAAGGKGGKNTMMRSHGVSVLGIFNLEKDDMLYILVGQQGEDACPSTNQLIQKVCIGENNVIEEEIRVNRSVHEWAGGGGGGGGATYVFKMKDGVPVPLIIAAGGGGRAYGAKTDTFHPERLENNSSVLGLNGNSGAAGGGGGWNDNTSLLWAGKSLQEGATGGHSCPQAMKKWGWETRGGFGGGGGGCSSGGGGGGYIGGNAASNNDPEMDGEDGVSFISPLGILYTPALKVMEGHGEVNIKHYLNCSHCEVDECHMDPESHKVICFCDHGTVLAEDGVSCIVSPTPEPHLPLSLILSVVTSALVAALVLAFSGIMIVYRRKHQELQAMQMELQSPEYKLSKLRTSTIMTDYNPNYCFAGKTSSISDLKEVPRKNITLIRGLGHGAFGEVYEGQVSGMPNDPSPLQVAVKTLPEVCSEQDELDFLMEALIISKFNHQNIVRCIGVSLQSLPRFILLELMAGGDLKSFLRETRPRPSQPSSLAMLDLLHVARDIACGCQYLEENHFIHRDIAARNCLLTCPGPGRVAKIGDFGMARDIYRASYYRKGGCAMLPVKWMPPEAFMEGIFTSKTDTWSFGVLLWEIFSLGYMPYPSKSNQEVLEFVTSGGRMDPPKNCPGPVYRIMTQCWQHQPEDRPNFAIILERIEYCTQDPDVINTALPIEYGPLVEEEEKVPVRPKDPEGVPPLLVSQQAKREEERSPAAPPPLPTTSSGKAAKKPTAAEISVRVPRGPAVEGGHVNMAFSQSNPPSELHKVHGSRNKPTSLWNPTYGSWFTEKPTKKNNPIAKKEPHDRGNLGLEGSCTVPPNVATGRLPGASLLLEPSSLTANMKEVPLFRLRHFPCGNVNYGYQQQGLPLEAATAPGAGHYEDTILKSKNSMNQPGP
Assay Remarks: ALK Kinase Assay (ELISA/TRF, PLC-γ substrate)
Assay type: biochemical
Experimental Setup: ALK kinase inhibition, 1 μM ATP; read-out: ALK Potency
Assay Metric: IC50

Below are worked cases with known answers.
# Compound, IC50
records = [
    ("COc1cc([C@@H]2CCN(C(=O)OC(C)(C)C)C[C@@H]2O)ccc1Nc1ncc2ccc(-c3ccccc3OC)n2n1 (racemic) [Example 834]", "100 to 1000 nM"),
    ("COc1cccc(F)c1-c1ccc2cnc(Nc3ccc(C4CCN(CC(N)=O)CC4)cc3)nn12 [Example 1353]", "< 100 nM"),
    ("CC(=O)Nc1cc(Nc2ncc3ccc(-c4cccc(S(=O)(=O)NC(C)(C)C)c4)n3n2)ccc1Cl [Example 888]", "100 to 1000 nM"),
    ("COc1cc(N2CCC(N(C)C)CC2)ccc1Nc1ncc2ccc(-c3ccc(S(C)(=O)=O)cc3)n2n1 [Example 477]", "< 100 nM"),
    ("CCc1nc2ccc(Nc3ncc4ccc(-c5cccc(S(=O)(=O)NC(C)(C)C)c5)n4n3)cc2[nH]1 [Example 1328]", "100 to 1000 nM"),
]

Entry COc1cc(C2CCN(CC(=O)NC(CO)CO)CC2)ccc1Nc1ncc2ccc(-c3ccccc3OC)n2n1 [Example 1279] , system ALK (Homo sapiens, UniProt Q9UM73): what IC50 was measured?
< 100 nM

Further, for CN1CCN(CCn2cc(Nc3ncc4ccc(-c5cnn(C)c5)n4n3)cn2)CC1 [Example 1213] ?
100 to 1000 nM

Further, for COc1cc(N2CCC(N3CCCN(CCO)CC3)CC2)ccc1Nc1ncc2ccc(-c3ccccc3OC)n2n1 [Example 801] ?
< 100 nM

Further, for Cc1ccncc1-c1ccc2cnc(Nc3ccc(N4CCN(C)CC4)cc3)nn12 [Example 1039] ?
100 to 1000 nM

Further, for CS(=O)(=O)c1cccc(-c2ccc3cnc(Nc4ccc(F)c(Cl)c4)nn23)c1 [Example 597] ?
> 10000 nM

Further, for Cc1cc(-c2ccccc2N(C)S(C)(=O)=O)n2nc(Nc3ccc(C4CCN(CC(N)=O)CC4)cc3)ncc12 [Example 1261] ?
< 100 nM

Further, for COc1cc(CCN2CCOCC2)ccc1Nc1ncc2ccc(-c3ccccc3OC)n2n1 [Example 492] ?
< 100 nM

Further, for COc1cc(N2CCN(c3ccccn3)CC2)ccc1Nc1ncc2ccc(-c3ccccc3OC)n2n1 [Example 994] ?
100 to 1000 nM

Further, for COc1cc(N2CCC(N3CCCN(CCO)CC3)CC2)ccc1Nc1ncc2ccc(-c3ccccc3N(C)S(C)(=O)=O)n2n1 [Example 803] ?
< 100 nM

Further, for COc1cc2c(cc1Nc1ncc3ccc(-c4cccc5c4OCC5)n3n1)CCN(CC(N)=O)CC2 [Example 708] ?
< 100 nM

* * *

Target Under Test: JAK2 (Homo sapiens)
Construct: host or cells: baculovirus expression system
Sequence (O60674 whole entry): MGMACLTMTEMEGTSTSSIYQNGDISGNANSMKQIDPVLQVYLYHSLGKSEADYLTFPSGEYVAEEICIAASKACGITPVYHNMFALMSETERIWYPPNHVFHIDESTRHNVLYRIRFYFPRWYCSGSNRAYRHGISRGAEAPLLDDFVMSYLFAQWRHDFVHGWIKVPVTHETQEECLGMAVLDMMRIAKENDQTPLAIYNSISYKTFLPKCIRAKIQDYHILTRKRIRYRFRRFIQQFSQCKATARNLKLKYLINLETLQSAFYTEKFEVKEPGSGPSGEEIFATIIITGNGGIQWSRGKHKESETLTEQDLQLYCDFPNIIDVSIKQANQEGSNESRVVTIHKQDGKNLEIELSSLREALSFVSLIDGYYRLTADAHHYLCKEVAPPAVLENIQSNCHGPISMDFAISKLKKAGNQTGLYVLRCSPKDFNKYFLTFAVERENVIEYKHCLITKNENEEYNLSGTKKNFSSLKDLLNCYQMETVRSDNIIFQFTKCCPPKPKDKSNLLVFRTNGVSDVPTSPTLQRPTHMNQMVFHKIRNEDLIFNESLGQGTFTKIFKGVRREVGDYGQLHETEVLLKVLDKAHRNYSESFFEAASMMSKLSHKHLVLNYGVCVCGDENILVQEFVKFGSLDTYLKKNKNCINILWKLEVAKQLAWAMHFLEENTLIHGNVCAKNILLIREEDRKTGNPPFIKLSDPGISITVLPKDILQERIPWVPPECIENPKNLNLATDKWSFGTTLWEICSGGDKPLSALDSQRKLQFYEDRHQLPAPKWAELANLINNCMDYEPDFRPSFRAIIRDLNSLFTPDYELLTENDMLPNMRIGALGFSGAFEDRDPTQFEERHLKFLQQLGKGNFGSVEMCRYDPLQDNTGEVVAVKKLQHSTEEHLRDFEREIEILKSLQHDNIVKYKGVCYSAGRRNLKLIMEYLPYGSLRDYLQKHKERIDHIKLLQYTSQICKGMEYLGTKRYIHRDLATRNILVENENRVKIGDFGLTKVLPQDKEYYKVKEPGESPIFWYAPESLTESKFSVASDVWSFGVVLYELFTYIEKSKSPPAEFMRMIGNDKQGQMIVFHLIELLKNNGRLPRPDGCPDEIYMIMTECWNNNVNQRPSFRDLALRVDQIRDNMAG
Assay Remarks: Recombinant Human JAK2 Kinase Assay (TRF)
Assay type: biochemical
Experimental Setup: JAK2 kinase inhibition, 0.2 μM ATP; read-out: JAK2 Potency
pIC50: −log10 of the molar value.
Assay Metric: pIC50

Below are worked cases with known answers.
# Smiles Data, Assay Metric, Experimental Value
rows = [
    ("CN1C(=O)COc2cc(Nc3ncc4ccc(-c5ccccc5N(C)S(C)(=O)=O)n4n3)ccc21", "pIC50", "> 7.00"),
    ("CCN1CC=C(c2ccc(Nc3ncc4ccc(-c5ccccc5N(C)S(C)(=O)=O)n4n3)c(OC)c2)CC1", "pIC50", "5.00 to 6.00"),
    ("CN1CCN(c2ccc(Nc3ncc4ccc(-c5cnccc5NS(C)(=O)=O)n4n3)cc2)CC1", "pIC50", "6.00 to 7.00"),
    ("COc1cc(N2CCC(N3CCN(C)CC3)CC2)ccc1Nc1ncc2ccc(-c3ccccc3S(=O)(=O)N(C)C)n2n1", "pIC50", "5.00 to 6.00"),
]

Entry COc1ccccc1-c1ccc2cnc(Nc3ccc(-c4cccnc4)cc3)nn12 , system JAK2 (Homo sapiens): what pIC50 was measured?
> 7.00

Further, for COc1cc(C2CCN(CCO)CC2)ccc1Nc1ncc2ccc(-c3cccc(S(=O)(=O)NC(C)(C)C)c3)n2n1 ?
6.00 to 7.00

Further, for COc1ccccc1-c1ccc2cnc(Nc3cccc(OCCN4CCOCC4)c3)nn12 ?
> 7.00
